Readings of kon for the listed binders
Target: T1, human blood protein factor XII (FXII) (human, UniProt P00748 20-615)
T1 construct: mature; Single-chain zymogen as it circulates in plasma; also called human FXII; plasma-derived FXII
T1 sequence (looked up): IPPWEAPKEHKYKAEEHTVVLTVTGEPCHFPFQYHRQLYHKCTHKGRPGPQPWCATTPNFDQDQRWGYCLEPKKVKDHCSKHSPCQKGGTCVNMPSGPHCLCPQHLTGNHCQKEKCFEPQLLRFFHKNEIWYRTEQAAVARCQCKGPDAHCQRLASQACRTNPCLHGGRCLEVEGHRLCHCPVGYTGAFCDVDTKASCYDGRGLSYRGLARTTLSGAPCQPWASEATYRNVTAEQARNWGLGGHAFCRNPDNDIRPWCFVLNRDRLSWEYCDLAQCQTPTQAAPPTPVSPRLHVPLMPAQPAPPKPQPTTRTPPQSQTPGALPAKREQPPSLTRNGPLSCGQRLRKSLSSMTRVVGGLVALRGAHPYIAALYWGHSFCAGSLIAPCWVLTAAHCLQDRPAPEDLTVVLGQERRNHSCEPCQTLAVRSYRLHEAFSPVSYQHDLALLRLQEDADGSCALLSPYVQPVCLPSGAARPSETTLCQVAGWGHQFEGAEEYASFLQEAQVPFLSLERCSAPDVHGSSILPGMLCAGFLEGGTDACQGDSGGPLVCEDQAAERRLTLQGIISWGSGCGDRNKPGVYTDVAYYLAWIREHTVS
Assay: BLI (Octet RED96), antibody on anti-human Fc biosensors, antigen in solution, 1:1 fit
Field format: number, assumed M⁻¹ s⁻¹, no unit text.

Example cases with answers are listed next.
BINDER	RESULT UNITS	kon
humanized 5C12 antibody HC3 + LC1 (PP13899) (antibody, human IgG4 S228P, kappa, V domains shown, Human IgG4 (S241P hinge modified), expressed in HEK293; also called H7882 + L7880) VH: DVQLQESGPGLVKPSETLSLTCTVSGYSITSGYSWHWIRQPPGKGLEWIGYIQYSGNTNSNPSLKSRVTISRDTSKNQFSLRLSSVTAADTAVYYCARWGSFDYWGQGTMVTVSS VL: EIVLTQSPATLSLSPGERATLSCRASSSVNYLHWYQQKPGQAPRRLIYDTSKLATGIPARFSGSGSGTDYTLTISSLEPEDFAVYYCQQWSGNPPTFGGGTKVEIKR	M⁻¹ s⁻¹	560000
humanized 5C12 antibody HC2 + LC3 (PP13898) (antibody, human IgG4 S228P, kappa, V domains shown, Human IgG4 (S241P hinge modified), expressed in HEK293; also called H7881 + L7882) VH: DVQLQESGPGLVKPSQTLSLTCTVTGYSITSGYSWHWIRQHPGKGLEWMGYIQYSGNTNSNPSLKSRVTISRDTSKNQFSLKLSSVTAADTAVYYCARWGSFDYWGQGTLVTVSS VL: DIVLTQTPATLSLSPGERATLSCRASSSVNYLHWYQQKPGQAPKRLIYDTSKLATGIPARFSGSGSGTDYTLTISSLEPEDFAVYYCQQWSGNPPTFGQGTRLEIKR	M⁻¹ s⁻¹	500000
humanized 5C12 antibody HC3 + LC2 (PP13900) (antibody, human IgG4 S228P, kappa, V domains shown, Human IgG4 (S241P hinge modified), expressed in HEK293; also called H7882 + L7881) VH: DVQLQESGPGLVKPSETLSLTCTVSGYSITSGYSWHWIRQPPGKGLEWIGYIQYSGNTNSNPSLKSRVTISRDTSKNQFSLRLSSVTAADTAVYYCARWGSFDYWGQGTMVTVSS VL: EIVLTQSPATLSLSPGERATLSCRASSSVNYLHWYQQKPGQAPKRWIYDTSKLATGIPARFSGSGSGTDYTLTISSLEPEDFAVYYCQQWSGNPPTFGGGTKVEIKR	M⁻¹ s⁻¹	580000

// recorded kon for humanized 5C12 antibody HC1 + LC3 (PP13895) (antibody, human IgG4 S228P, kappa, V domains shown, Human IgG4 (S241P hinge modified), expressed in HEK293; also called H7880 + L7882) VH: QVQLQESGPGLVKPSQTLSLTCTVSGYSITSGYSWHWIRQHPGKGLEWIGYIQYSGNTNSNPSLKSRVTISRDTSKNQFSLKLSSVTAADTAVYYCARWGSFDYWGQGTLVTVSS VL: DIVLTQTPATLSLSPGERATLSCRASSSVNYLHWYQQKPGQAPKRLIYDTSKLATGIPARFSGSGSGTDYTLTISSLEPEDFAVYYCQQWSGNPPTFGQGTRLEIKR : 500000

Briefly, kon measured for humanized 5C12 antibody HC2 + LC2 (PP13897) (antibody, human IgG4 S228P, kappa, V domains shown, Human IgG4 (S241P hinge modified), expressed in HEK293; also called H7881 + L7881) VH: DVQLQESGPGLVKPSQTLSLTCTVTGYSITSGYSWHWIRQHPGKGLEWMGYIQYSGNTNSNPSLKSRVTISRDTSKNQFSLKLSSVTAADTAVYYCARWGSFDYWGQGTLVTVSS VL: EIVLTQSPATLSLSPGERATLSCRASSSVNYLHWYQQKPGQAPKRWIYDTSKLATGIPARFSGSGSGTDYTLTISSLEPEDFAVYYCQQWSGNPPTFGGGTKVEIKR : 620000
